Cited source: patent US12357623B2

# testMethodNotes: Rat AUC and percent bioavailability of compound I-1 after administration of potential prodrugs
# Parameters: species or system Rats
# measurementParameters: in vivo, parent, iv 1 mg/kg, read-out: Rat AUClast of compound I-1
measuredEndpoint: AUC(0-t) (ng·h/mL)
Answer format: numeric, ng·h/mL implied, no suffix.

State the recorded AUC(0-t) for this entry: CCO[C@H]1CC[C@H](n2cc(NC(=O)c3csc(-c4cn[nH]c4)n3)c(-c3nc(F)ccc3F)n2)CC1
1050
